Recorded values, source paper PMC10465233.

test system: LNCaP tumor-bearing mice; experiment: Ex vivo biodistribution in LNCaP tumor-bearing mice; parameters: species or system mouse; details: 1 h post-injection
measure-name: Bone uptake (%ID/g)
One number for each entry, in %ID/g.

>  <molecule>
O=C([O-])CN1CCN(CC(=O)[O-])CCN(CC(=O)NCC2CCC(C(=O)NC(Cc3c4ccccc4cc4ccccc34)C(=O)NCCCCC(NC(=O)NC(COCC(=O)O)C(=O)O)C(=O)O)CC2)CCN(CC(=O)[O-])CC1.[68Ga+3] (stereo not drawn) [[^68Ga]Ga-HTK03187]

>  <Bone uptake / %ID/g>
0.13

$$$$

State recorded Bone uptake for all listed molecules.
1. O=C([O-])CN1CCN(CC(=O)[O-])CCN(CC(=O)NCC2CCC(C(=O)NC(Cc3c4ccccc4cc4ccccc34)C(=O)NCCCCC(NC(=O)NC(CSCC(=O)O)C(=O)O)C(=O)O)CC2)CCN(CC(=O)[O-])CC1.[68Ga+3] (stereo not drawn) [[^68Ga]Ga-HTK03177]
2. COc1ccc(CCCC(=O)NCC(=O)N[C@@H](CCCCNC(=O)CN2CCN(CC(=O)[O-])CCN(CC(=O)[O-])CCN(CC(=O)[O-])CC2)C(=O)NC[C@H]2CC[C@H](C(=O)N[C@@H](Cc3c4ccccc4cc4ccccc34)C(=O)NCCCC[C@H](NC(=O)N[C@@H](COCC(=O)O)C(=O)O)C(=O)O)CC2)cc1.[177Lu+3] [[^177Lu]Lu-HTK04028]

Result:
1. 0.10
2. 0.99

###

tested on: LNCaP tumor-bearing mice; test: Ex vivo biodistribution in LNCaP tumor-bearing mice; parameters: species or system mouse; conditions: 1 h post-injection
Can you tell me Adrenal glands uptake for the items I'm about to list?
Give bare numbers, in %ID/g.

Please review the following examples before continuing.
>  <molecule>
COc1ccc(CCCC(=O)NCC(=O)N[C@@H](CCCCNC(=O)CN2CCN(CC(=O)[O-])CCN(CC(=O)[O-])CCN(CC(=O)[O-])CC2)C(=O)NC[C@H]2CC[C@H](C(=O)N[C@@H](Cc3c4ccccc4cc4ccccc34)C(=O)NCCCC[C@H](NC(=O)N[C@@H](CCCC(=O)O)C(=O)O)C(=O)O)CC2)cc1.[177Lu+3] [[^177Lu]Lu-HTK03170]

>  <test-target>
LNCaP tumor-bearing mice

>  <measure-name>
Adrenal glands uptake

>  <unit-string>
%ID/g

>  <reported>
3.34

$$$$
>  <molecule>
COc1ccc(CCCC(=O)NCC(=O)N[C@@H](CCCCNC(=O)CN2CCN(CC(=O)[O-])CCN(CC(=O)[O-])CCN(CC(=O)[O-])CC2)C(=O)NC[C@H]2CC[C@H](C(=O)N[C@@H](Cc3c4ccccc4cc4ccccc34)C(=O)NCCCC[C@H](NC(=O)N[C@@H](CSCC(=O)O)C(=O)O)C(=O)O)CC2)cc1.[177Lu+3] [[^177Lu]Lu-HTK04048]

>  <test-target>
LNCaP tumor-bearing mice

>  <measure-name>
Adrenal glands uptake

>  <unit-string>
%ID/g

>  <reported>
4.43

$$$$
>  <molecule>
COc1ccc(CCCC(=O)NCC(=O)N[C@@H](CCCCNC(=O)CN2CCN(CC(=O)[O-])CCN(CC(=O)[O-])CCN(CC(=O)[O-])CC2)C(=O)NC[C@H]2CC[C@H](C(=O)N[C@@H](Cc3c4ccccc4cc4ccccc34)C(=O)NCCCC[C@H](NC(=O)N[C@@H](COCC(=O)O)C(=O)O)C(=O)O)CC2)cc1.[177Lu+3] [[^177Lu]Lu-HTK04028]

>  <test-target>
LNCaP tumor-bearing mice

>  <measure-name>
Adrenal glands uptake

>  <unit-string>
%ID/g

>  <reported>
3.25

$$$$
>  <molecule>
O=C([O-])CN1CCN(CC(=O)[O-])CCN(CC(=O)NCC2CCC(C(=O)NC(Cc3c4ccccc4cc4ccccc34)C(=O)NCCCCC(NC(=O)NC(CSCC(=O)O)C(=O)O)C(=O)O)CC2)CCN(CC(=O)[O-])CC1.[68Ga+3] (centres unmarked) [[^68Ga]Ga-HTK03177]

>  <test-target>
LNCaP tumor-bearing mice

>  <measure-name>
Adrenal glands uptake

>  <unit-string>
%ID/g

>  <reported>
0.46

$$$$

Could you now consider this next molecule?
Q: Given the entry O=C([O-])CN1CCN(CC(=O)[O-])CCN(CC(=O)NCC2CCC(C(=O)NC(Cc3c4ccccc4cc4ccccc34)C(=O)NCCCCC(NC(=O)NC(COCC(=O)O)C(=O)O)C(=O)O)CC2)CCN(CC(=O)[O-])CC1.[68Ga+3] (centres unmarked) [[^68Ga]Ga-HTK03187] , report its measured Adrenal glands uptake.
Result: 0.26

###

system: LNCaP tumor-bearing mice; experiment: Ex vivo biodistribution in LNCaP tumor-bearing mice; parameters: species or system mouse; conditions: 1 h post-injection
Can you tell me Blood:Salivary gland uptake ratio for the items I'm about to list?
Answers are plain numbers.

Please review the following examples before continuing.
>  <molecule>
O=C([O-])CN1CCN(CC(=O)[O-])CCN(CC(=O)NCC2CCC(C(=O)NC(Cc3c4ccccc4cc4ccccc34)C(=O)NCCCCC(NC(=O)NC(CSCC(=O)O)C(=O)O)C(=O)O)CC2)CCN(CC(=O)[O-])CC1.[68Ga+3] (stereo not drawn) [[^68Ga]Ga-HTK03177]

>  <test-target>
LNCaP tumor-bearing mice

>  <reported>
3.14

$$$$
>  <molecule>
COc1ccc(CCCC(=O)NCC(=O)N[C@@H](CCCCNC(=O)CN2CCN(CC(=O)[O-])CCN(CC(=O)[O-])CCN(CC(=O)[O-])CC2)C(=O)NC[C@H]2CC[C@H](C(=O)N[C@@H](Cc3c4ccccc4cc4ccccc34)C(=O)NCCCC[C@H](NC(=O)N[C@@H](CCCC(=O)O)C(=O)O)C(=O)O)CC2)cc1.[177Lu+3] [[^177Lu]Lu-HTK03170]

>  <test-target>
LNCaP tumor-bearing mice

>  <reported>
7.04

$$$$

Could you now consider this next molecule?
Q: Given the entry COc1ccc(CCCC(=O)NCC(=O)N[C@@H](CCCCNC(=O)CN2CCN(CC(=O)[O-])CCN(CC(=O)[O-])CCN(CC(=O)[O-])CC2)C(=O)NC[C@H]2CC[C@H](C(=O)N[C@@H](Cc3c4ccccc4cc4ccccc34)C(=O)NCCCC[C@H](NC(=O)N[C@@H](CSCC(=O)O)C(=O)O)C(=O)O)CC2)cc1.[177Lu+3] [[^177Lu]Lu-HTK04048] , report its measured Blood:Salivary gland uptake ratio.
Result: 6.78

###

tested on: LNCaP tumor-bearing mice; test: Ex vivo biodistribution in LNCaP tumor-bearing mice; set-up: species or system mouse; details: 1 h post-injection
Labelling: Stomach uptake reported below 0.6 %ID/g becomes t; at or above becomes f.

For orientation, consider the following solved cases.
>  <compound>
COc1ccc(CCCC(=O)NCC(=O)N[C@@H](CCCCNC(=O)CN2CCN(CC(=O)[O-])CCN(CC(=O)[O-])CCN(CC(=O)[O-])CC2)C(=O)NC[C@H]2CC[C@H](C(=O)N[C@@H](Cc3c4ccccc4cc4ccccc34)C(=O)NCCCC[C@H](NC(=O)N[C@@H](COCC(=O)O)C(=O)O)C(=O)O)CC2)cc1.[177Lu+3] [[^177Lu]Lu-HTK04028]

>  <test-target>
LNCaP tumor-bearing mice

>  <class-assignment>
t

$$$$
>  <compound>
O=C([O-])CN1CCN(CC(=O)[O-])CCN(CC(=O)NCC2CCC(C(=O)NC(Cc3c4ccccc4cc4ccccc34)C(=O)NCCCCC(NC(=O)NC(COCC(=O)O)C(=O)O)C(=O)O)CC2)CCN(CC(=O)[O-])CC1.[68Ga+3] (centres unmarked) [[^68Ga]Ga-HTK03187]

>  <test-target>
LNCaP tumor-bearing mice

>  <class-assignment>
t

$$$$
>  <compound>
COc1ccc(CCCC(=O)NCC(=O)N[C@@H](CCCCNC(=O)CN2CCN(CC(=O)[O-])CCN(CC(=O)[O-])CCN(CC(=O)[O-])CC2)C(=O)NC[C@H]2CC[C@H](C(=O)N[C@@H](Cc3c4ccccc4cc4ccccc34)C(=O)NCCCC[C@H](NC(=O)N[C@@H](CSCC(=O)O)C(=O)O)C(=O)O)CC2)cc1.[177Lu+3] [[^177Lu]Lu-HTK04048]

>  <test-target>
LNCaP tumor-bearing mice

>  <class-assignment>
f

$$$$

Q: Given the entry O=C([O-])CN1CCN(CC(=O)[O-])CCN(CC(=O)NCC2CCC(C(=O)NC(Cc3c4ccccc4cc4ccccc34)C(=O)NCCCCC(NC(=O)NC(CSCC(=O)O)C(=O)O)C(=O)O)CC2)CCN(CC(=O)[O-])CC1.[68Ga+3] (centres unmarked) [[^68Ga]Ga-HTK03177] , would its reported Stomach uptake be below 0.6 %ID/g?
Result: t
